Cited source: ChEMBL document CHEMBL1201862

System: SNB-19
procedure-text: NCI tumour cell line growth inhibition, 48 h
Activity calls are given as the source filed them. Rule as the data show it: active = GI50 up to about 1.1 µM and inactive = higher.
Please provide measured GI50 for the entries that follow.

CCCOP1(=O)C=C(C)C(Cl)=C(C)C1 (centres undefined) ... > 100 µM (inactive)
O=C(N/N=C(COc1ccc(Cl)cc1)\N=C\c1ccncc1)c1ccncc1 ... > 100 µM (inactive)

Lab note: each compound below needs its GI50 filled in.
1. NNC1=N/C(=C\c2ccccc2O)C(=O)N1
2. O=C(CCCC(=O)N1CC(CCl)c2ccc([N+](=O)[O-])cc21)N1CC(CCl)c2ccc([N+](=O)[O-])cc21 (centres undefined)

73.3 µM (inactive)
> 100 µM (inactive)

* * *

Data export: GI50 values recorded with HCT-15.

Field: example entries. Status: answers known.
CC(=O)c1ccc2c3c1[C@H]1O[C@H]1c1cccc(c1-3)[C@@H]1O[C@H]21 ... 0.959 µM
CC1=[N+]([O-])C(C)(C)N(N=O)C1(C)C ... > 10 µM
C=CCN(c1cc(O)c2c(c(C)cn2S(=O)(=O)c2ccccc2)c1[N+](=O)[O-])S(C)(=O)=O ... > 100 µM
Fc1cc(F)c(F)c(S)c1F ... 59.6 µM
CN(C)CCCNc1ncnc2c1ncn2C1OC(CO)C(O)C1O (stereo unspecified) ... > 100 µM

Note: attention shifts to another entry.
Quick one: GI50 of O=c1cc(CO)oc2c3c(cc(O)c12)OCC(COC1OC(CO)C(O)C(O)C1O)=CC3 (stereo unspecified) ?
> 100 µM

* * *

Please provide measured GI50 for the entries that follow.
System: MDA-N
procedure-text: NCI tumour cell line growth inhibition, 48 h
Calls of active or inactive are those of the source. Cut-off read from the data, not from the text of the source: active = GI50 up to about 1.1 µM and inactive = higher.

Field: example entries. Status: answers known.
CC(NC(=O)C(NC(=O)C(NC(=O)C(F)(F)F)C(C)C)C(C)C)C(=O)Oc1c(Cl)c(Cl)c(Cl)c(Cl)c1Cl (stereo unspecified) ... > 100 µM (inactive)
Cc1ccccc1/N=N/c1c(O)c(S(=O)(=O)O)cc2cc(S(=O)(=O)O)ccc12 ... > 100 µM (inactive)
CCOC(=O)C(COS(C)(=O)=O)(COS(C)(=O)=O)C(=O)OCC ... > 100 µM (inactive)
COC(=O)C1Cc2c([nH]c3ccccc23)C(c2cccc(O)c2)N1 (stereo unspecified) ... 19.5 µM (inactive)
COC12c3ccccc3-c3ccccc3C1[C@@H](C(=O)O)[C@H]2C(=O)O (stereo partly specified) ... > 10 µM (inactive)
C/C(=N\NC(=S)Nc1ccc([N+](=O)[O-])cc1)c1nc2cccnc2[nH]1 ... 1.78 µM (inactive)
COc1ccc2nc3n(c2c1)C(c1c(Cl)cccc1Cl)SC3 (stereo unspecified) ... 87.9 µM (inactive)
O=C(O)c1ccc(C(=O)c2ccccc2)c(C(=O)O)c1 ... > 100 µM (inactive)
CN1C(=O)C2CCCC(=O)N2c2cccnc21 (stereo unspecified) ... > 100 µM (inactive)
COc1cccc(/C=N/n2c(-c3ccccc3)n[nH]c2=O)c1 ... > 100 µM (inactive)

Quick one: GI50 of CCOC(=O)c1nc2c3c(ncn2n1)Oc1c(c(-c2ccccc2)nn1-c1ccccc1)C3c1ccc(Cl)cc1 (stereo unspecified) ?
> 100 µM (inactive)

* * *

System: Malme-3M
procedure-text: NCI tumour cell line growth inhibition, 48 h
The source made the active and inactive calls. Rule as the data show it: active = GI50 up to about 1.1 µM and inactive = higher.
Please provide measured GI50 for the entries that follow.

CN1C(=O)C2CCCC(=O)N2c2cccnc21 (stereo not given) ... > 100 µM (inactive)
COC(=O)[C@H](Cc1ccccc1)NC(=O)N(CCN(CCC#N)C(=O)N[C@H](C(=O)OC)C(C)C)c1ccccc1 ... 43.7 µM (inactive)
BrC(c1cccc2ccccc12)c1cccc2ccccc12 ... 4.94 µM (inactive)
COC(=O)C(NC(=O)C(CC(=O)OC(C)(C)C)NC(=O)OC(C)(C)C)C(O)c1ccccc1 (stereo not given) ... > 100 µM (inactive)

Note: attention shifts to another entry.
Quick one: GI50 of CC(=O)OCCN(C1=NCCN1)/[N+](C=c1ccc(=C=[N-])cc1)=C/c1ccc(C#N)cc1 ?
> 100 µM (inactive)

* * *

Tested on: NCI-H226
procedure-text: NCI tumour cell line growth inhibition, 48 h
Calls of active or inactive are those of the source. No stated cut-off is given here; in the data, active = GI50 up to about 1.1 µM and inactive = higher. Where a SMILES comes first, the peptide text is derived from it. The star is where a group is joined. Cbz = O=C(OCc1ccccc1)*; Boc = CC(C)(C)OC(=O)*; Bn = c1ccc(C*)cc1
Please provide measured GI50 for the entries that follow.

Lab note: each molecule below needs its GI50 filled in.
1. Nc1nc(N)c(-c2cccc(C(F)(F)F)c2)c(Cc2cccc(C(F)(F)F)c2)n1
2. C=C1C(=O)OC2/C=C(\C)C(OC(C)=O)C3OC3C(C)(O)CC(OC(=O)/C(C)=C/C)C12 (centres undefined)
3. CC(NC(=O)OCc1ccccc1)NC(=O)OC(C)(C)C (centres undefined)
4. O=c1c(C(c2ccc([N+](=O)[O-])cc2)c2c(O)oc3ccccc3c2=O)c(O)oc2ccccc12
5. COc1ccc(/C=C/c2cc(OC)c(OCc3ccccc3)c(OC)c2)cc1
6. N#CCCC(CC#N)N1CCN(CCO)CC1 (centres undefined)
7. Cc1n[nH]c(=O)n1-c1cccnc1
8. C[C@H](CCc1nc(C#N)c(N)o1)[C@H]1CC[C@H]2[C@@H]3CCC4C[C@@H](O)CC[C@]4(C)[C@H]3C[C@@H](O)[C@]12C (some centres undefined)

1: 10.4 µM (inactive); 2: 10 µM (inactive); 3: > 100 µM (inactive); 4: > 100 µM (inactive); 5: > 100 µM (inactive); 6: > 100 µM (inactive); 7: > 100 µM (inactive); 8: 8.38 µM (inactive)

Lab note: each molecule below needs its GI50 filled in.
1. Cc1c(NC(=O)c2cc([N+](=O)[O-])cc([N+](=O)[O-])c2)c(=O)n(-c2ccccc2)n1C
2. CC1(C2CCC3(C)OC3C2)CO1 (centres undefined)
3. CN(C)CCCNC(=O)N/N=C/c1ccc(O)cc1
4. COc1cc2c(cc1O)C1C(O)C(O)C=C3CCN(C2)C31 (centres undefined)
5. Cc1cc(-c2nc3c(O)cccc3s2)ccc1N
6. CC(=O)OCCN(C1=NCCN1)/[N+](C=c1ccc(=C=[N-])cc1)=C/c1ccc(C#N)cc1

1. > 100 µM (inactive)
2. > 100 µM (inactive)
3. > 100 µM (inactive)
4. 2.55 µM (inactive)
5. 31.6 µM (inactive)
6. > 100 µM (inactive)

Lab note: each molecule below needs its GI50 filled in.
1. O/N=C1/C2CC3CC1(c1ccccc1)CC(/C3=N/O)/C2=N\O (centres undefined)
2. NCCC1([N+](=O)[O-])CCNCC1
3. COc1cc(O)c(C(=O)/C=C/c2ccccc2)c(OC)c1 [FLAVOKAWAIN B]
4. O=c1[nH]cnc2c1sc1nc3ccccc3n12
5. O=C(N/N=C(COc1cccc(Cl)c1)\N=C\c1cccnc1)c1ccncc1
6. CCOP(=S)(OCC)Oc1ccc2c(c1)OC(=O)C1(Cl)C2(C)C2(Cl)C(=O)Oc3cc(OP(=S)(OCC)OCC)ccc3C12C (centres undefined)
7. O=C(/C=C/c1ccccc1O)CC(=O)/C=C/c1ccccc1O

["> 100 µM (inactive)", "> 100 µM (inactive)", "4.15 µM (inactive)", "> 100 µM (inactive)", "93.5 µM (inactive)", "15.1 µM (inactive)", "> 10 µM (inactive)"]

Lab note: each molecule below needs its GI50 filled in.
1. CCC(C)CN1C(=O)NC(Cc2ccccc2)C1=O (centres undefined)
2. COc1cc(/C=C/c2cc(=O)cc(/C=C/c3ccc(O)c(OC)c3)o2)ccc1O
3. c1ccc(/N=C2\C(=N/c3ccccc3)N(C3CCCCC3)/C(=N\C3CCCCC3)N2c2ccccc2)cc1
4. COc1ccc(SCc2cc(OCc3ccccc3)c(OCc3ccccc3)c(OCc3ccccc3)c2)cc1
5. CC(C)(C)OC(=O)NC(Cc1ccc(OCc2ccccc2)cc1)C(=O)NC(CCCCNC(=O)OCc1ccccc1)C(=O)O (centres undefined) (Boc-Tyr(Bn)-Lys(Cbz)-OH; configuration not given here)
6. COC(=O)C(NC(=O)C(CC(=O)OC(C)(C)C)NC(=O)OC(C)(C)C)C(O)c1ccccc1 (centres undefined)
7. c1ccc2c(c1)[nH]c1c[nH]c3c4cccnc4nc-3c12
8. C=C(N=[N+]=[N-])c1cn(C2CC(O)C(CO)O2)c(=O)[nH]c1=O (centres undefined)

1: > 100 µM (inactive); 2: 29.3 µM (inactive); 3: > 100 µM (inactive); 4: 1.9 µM (inactive); 5: 96.4 µM (inactive); 6: > 100 µM (inactive); 7: 25.2 µM (inactive); 8: > 100 µM (inactive)
